- assay_info: PK characteristics in humans (plasma, LC/MS/MS)
- Assay type: in vivo, human
- condition_summary: human, plasma, oral, 240 mg, steady state, 240 QD mg, n=2, mean, cancer patients; read-out: Cmax
endpoint: Cmax (ng/mL)
API: value field is a number in ng/mL; no unit string.

Record Nc1cc(C(F)(F)F)c(-c2nc(N3CCOCC3)c3nc(-c4cccc(NS(=O)(=O)CCCF)c4F)ccc3n2)cn1 [CMPD A] . Reported Cmax: 954

====

- assay_info: PK characteristics in humans (plasma, LC/MS/MS)
- Type: in vivo, human
- condition_summary: human, plasma, oral, 400 mg, Day 15, 400 QD mg, n=2, mean; read-out: Tmax
endpoint: Tmax (h)
API: value field is a number in h; no unit string.

Record "Nc1cc(C(F)(F)F)c(-c2nc(N3CCOCC3)c3nc(-c4cccc(NS(=O)(=O)CCCF)c4F)ccc3n2)cn1" . Reported Tmax: 4.5

====

- assay_info: PK characteristics in humans (plasma, LC/MS/MS)
- Type: in vivo, human
- condition_summary: human, plasma, oral, 400 mg, Day 15, 400 QD mg, individual subjects; read-out: Cmax
- Method: A pharmaceutical formulation of the disclosure comprising the active ingredient N-(3-(2-(6-amino-4-(trifluoromethyl)pyridin-3-yl)-4-morpholinopyrido[3,2-d]pyrimidin-6-yl)-2-fluorophenyl)-3-fluoropropane-1-sulfonamide was evaluated for safety/tolerability and preliminary efficacy in eligible human subjects with advanced solid tumors, and the pharmacokinetic (PK) profile of the active ingredient was investigated for each subject. Eligibility criteria for inclusion in this study included: […]
endpoint: Cmax (ng/mL)
API: value field is a number in ng/mL; no unit string.

Record "Nc1cc(C(F)(F)F)c(-c2nc(N3CCOCC3)c3nc(-c4cccc(NS(=O)(=O)CCCF)c4F)ccc3n2)cn1" . Reported Cmax: 2770

====

- assay_info: PK characteristics in humans (plasma, LC/MS/MS)
- Assay type: in vivo, human
- condition_summary: human, plasma, oral, 120 mg, Day 15, 120 mg, n=3, mean; read-out: Cmax
endpoint: Cmax (ng/mL)
API: value field is a number in ng/mL; no unit string.

Record "Nc1cc(C(F)(F)F)c(-c2nc(N3CCOCC3)c3nc(-c4cccc(NS(=O)(=O)CCCF)c4F)ccc3n2)cn1" . Reported Cmax: 728

====

- assay_info: PK characteristics in humans (plasma, LC/MS/MS)
- Type: in vivo, human
- condition_summary: human, plasma, oral, 10 mg, Day 15, 10 mg, n=1; read-out: AUC0-24
endpoint: AUC(0-t) (ng·h/mL)
API: value field is a number in ng·h/mL; no unit string.

Record Nc1cc(C(F)(F)F)c(-c2nc(N3CCOCC3)c3nc(-c4cccc(NS(=O)(=O)CCCF)c4F)ccc3n2)cn1 [CMPD A] . Reported AUC(0-t): 912

====

- assay_info: PK characteristics in humans (plasma, LC/MS/MS)
- Format: in vivo, human
- condition_summary: human, plasma, oral, 10 mg, steady state, 10 QD mg, n=1, cancer patients; read-out: Cmax
endpoint: Cmax
Don't forget the unit after the number, please.

Record "Nc1cc(C(F)(F)F)c(-c2nc(N3CCOCC3)c3nc(-c4cccc(NS(=O)(=O)CCCF)c4F)ccc3n2)cn1" . Reported Cmax: 74 ng/mL

====

- assay_info: PK characteristics in humans (plasma, LC/MS/MS)
- Format: in vivo, human
- condition_summary: human, plasma, oral, 400 mg, Day 1, 400 QD mg, individual subjects; read-out: T1/2 (converted)
endpoint: half-life

Record Nc1cc(C(F)(F)F)c(-c2nc(N3CCOCC3)c3nc(-c4cccc(NS(=O)(=O)CCCF)c4F)ccc3n2)cn1 [CMPD A] . Reported half-life: 15.2 h

====

- assay_info: PK characteristics in humans (plasma, LC/MS/MS)
- Format: in vivo, human
- condition_summary: human, plasma, oral, 10 mg, steady state, 10 QD mg, n=1, cancer patients; read-out: Tmax
endpoint: Tmax (h)
API: value field is a number in h; no unit string.

Record "Nc1cc(C(F)(F)F)c(-c2nc(N3CCOCC3)c3nc(-c4cccc(NS(=O)(=O)CCCF)c4F)ccc3n2)cn1" . Reported Tmax: 4

====

- assay_info: PK characteristics in humans (plasma, LC/MS/MS)
- Type: in vivo, human
- condition_summary: human, plasma, oral, 400 mg, Day 1, 400 bid mg, mean; read-out: T1/2 (converted)
endpoint: half-life

Record Nc1cc(C(F)(F)F)c(-c2nc(N3CCOCC3)c3nc(-c4cccc(NS(=O)(=O)CCCF)c4F)ccc3n2)cn1 [CMPD A] . Reported half-life: 18.6 h

====

- assay_info: PK characteristics in humans (plasma, LC/MS/MS)
- Format: in vivo, human
- condition_summary: human, plasma, oral, 240 mg, Day 15, 240 mg, n=2, mean; read-out: Tmax
endpoint: Tmax (h)
API: value field is a number in h; no unit string.

Record Nc1cc(C(F)(F)F)c(-c2nc(N3CCOCC3)c3nc(-c4cccc(NS(=O)(=O)CCCF)c4F)ccc3n2)cn1 [CMPD A] . Reported Tmax: 2

====

- assay_info: PK characteristics in humans (plasma, LC/MS/MS)
- Format: in vivo, human
- condition_summary: human, plasma, oral, 10 mg, steady state, 10 QD mg, n=1, cancer patients; read-out: AUC0-24h
endpoint: AUC(0-t) (ng·h/mL)
API: value field is a number in ng·h/mL; no unit string.

Record Nc1cc(C(F)(F)F)c(-c2nc(N3CCOCC3)c3nc(-c4cccc(NS(=O)(=O)CCCF)c4F)ccc3n2)cn1 [CMPD A] . Reported AUC(0-t): 912

====

- assay_info: PK characteristics in humans (plasma, LC/MS/MS)
- Type: in vivo, human
- condition_summary: human, plasma, oral, 80 mg, Day 15, 80 mg, n=2, mean; read-out: Cmax
endpoint: Cmax (ng/mL)
API: value field is a number in ng/mL; no unit string.

Record Nc1cc(C(F)(F)F)c(-c2nc(N3CCOCC3)c3nc(-c4cccc(NS(=O)(=O)CCCF)c4F)ccc3n2)cn1 [CMPD A] . Reported Cmax: 1060

====

- assay_info: PK characteristics in humans (plasma, LC/MS/MS)
- Assay type: in vivo, human
- condition_summary: human, plasma, oral, 80 mg, Day 1, 80 mg, individual subjects; read-out: Cmax
endpoint: Cmax (ng/mL)
API: value field is a number in ng/mL; no unit string.

Record Nc1cc(C(F)(F)F)c(-c2nc(N3CCOCC3)c3nc(-c4cccc(NS(=O)(=O)CCCF)c4F)ccc3n2)cn1 [CMPD A] . Reported Cmax: 470

====

- assay_info: PK characteristics in humans (plasma, LC/MS/MS)
- Assay type: in vivo, human
- condition_summary: human, plasma, oral, 20 mg, steady state, 20 QD mg, n=1, cancer patients; read-out: AUC0-24h
endpoint: AUC(0-t) (ng·h/mL)
API: value field is a number in ng·h/mL; no unit string.

Record "Nc1cc(C(F)(F)F)c(-c2nc(N3CCOCC3)c3nc(-c4cccc(NS(=O)(=O)CCCF)c4F)ccc3n2)cn1" . Reported AUC(0-t): 3160

====

- assay_info: PK characteristics in humans (plasma, LC/MS/MS)
- Type: in vivo, human
- condition_summary: human, plasma, oral, 120 mg, steady state, 120 QD mg, n=3, mean, cancer patients; read-out: AUC0-24h
- Method: A pharmaceutical formulation of the disclosure comprising the active ingredient N-(3-(2-(6-amino-4-(trifluoromethyl)pyridin-3-yl)-4-morpholinopyrido[3,2-d]pyrimidin-6-yl)-2-fluorophenyl)-3-fluoropropane-1-sulfonamide was evaluated for safety/tolerability and preliminary efficacy in eligible human subjects with advanced solid tumors, and the pharmacokinetic (PK) profile of the active ingredient was investigated for each subject. Eligibility criteria for inclusion in this study included: […]
endpoint: AUC(0-t) (ng·h/mL)
API: value field is a number in ng·h/mL; no unit string.

Record "Nc1cc(C(F)(F)F)c(-c2nc(N3CCOCC3)c3nc(-c4cccc(NS(=O)(=O)CCCF)c4F)ccc3n2)cn1" . Reported AUC(0-t): 10100

====

- assay_info: PK characteristics in humans (plasma, LC/MS/MS)
- Assay type: in vivo, human
- condition_summary: human, plasma, oral, 400 mg, Day 15, 400 bid mg, n=1; read-out: AUC0-24
endpoint: AUC(0-t) (µg·h/mL)
API: value field is a number in µg·h/mL; no unit string.

Record "Nc1cc(C(F)(F)F)c(-c2nc(N3CCOCC3)c3nc(-c4cccc(NS(=O)(=O)CCCF)c4F)ccc3n2)cn1" . Reported AUC(0-t): 110

====

- assay_info: PK characteristics in humans (plasma, LC/MS/MS)
- Assay type: in vivo, human
- condition_summary: human, plasma, oral, 400 mg, Day 1, 400 QD mg, n=2, mean; read-out: Cmax
endpoint: Cmax

Record Nc1cc(C(F)(F)F)c(-c2nc(N3CCOCC3)c3nc(-c4cccc(NS(=O)(=O)CCCF)c4F)ccc3n2)cn1 [CMPD A] . Reported Cmax: 1070 ng/mL

Ref: patent US10695296B2
